Biological target: equine serum butyrylcholinesterase (BChE, EC 3.1.1.8) (Equus caballus)
Construct: purchased Sigma-Aldrich (St. Louis, MO, USA); host or cells: equine serum
Sequence (P81908 whole entry): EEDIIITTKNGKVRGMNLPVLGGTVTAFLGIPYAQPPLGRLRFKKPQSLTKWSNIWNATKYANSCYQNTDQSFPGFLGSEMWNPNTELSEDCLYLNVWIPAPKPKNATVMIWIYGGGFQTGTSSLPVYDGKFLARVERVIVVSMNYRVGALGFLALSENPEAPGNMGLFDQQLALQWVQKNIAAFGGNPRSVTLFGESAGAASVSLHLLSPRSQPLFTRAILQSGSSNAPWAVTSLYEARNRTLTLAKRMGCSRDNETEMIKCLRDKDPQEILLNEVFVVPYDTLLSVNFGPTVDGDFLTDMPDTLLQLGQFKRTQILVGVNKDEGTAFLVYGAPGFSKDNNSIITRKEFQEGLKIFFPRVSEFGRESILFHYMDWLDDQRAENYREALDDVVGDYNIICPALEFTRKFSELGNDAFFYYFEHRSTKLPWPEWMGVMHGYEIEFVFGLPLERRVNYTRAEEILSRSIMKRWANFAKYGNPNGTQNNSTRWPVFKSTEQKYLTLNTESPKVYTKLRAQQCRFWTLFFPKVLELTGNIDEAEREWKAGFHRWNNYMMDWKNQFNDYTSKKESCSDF
Assay: biochemical
Type: biochemical
Details: 2a, 2r: up to a concentration of 1000 µM
quantity-kind: BChE inhibition effect (in words)

Here's what some known entries look like.
# molecule, experimental-target, BChE inhibition effect (in words)
data = [
    ("Nc1cccc(C(=O)OCC(=O)C23CC4CC(CC(C4)C2)C3)c1 [Compound 2p]", "equine serum butyrylcholinesterase (BChE, EC 3.1.1.8) (Equus caballus)", "inactive"),
    ("O=C(OCC(=O)C12CC3CC(CC(C3)C1)C2)c1ccccc1 [Compound 2a, 2-(Adamantan-1-yl)-2-oxoethyl benzoate]", "equine serum butyrylcholinesterase (BChE, EC 3.1.1.8) (Equus caballus)", "low inhibition effects"),
    ("Nc1ccccc1C(=O)OCC(=O)C12CC3CC(CC(C3)C1)C2 [Compound 2o]", "equine serum butyrylcholinesterase (BChE, EC 3.1.1.8) (Equus caballus)", "inactive"),
    ("Nc1ccc(C(=O)OCC(=O)C23CC4CC(CC(C4)C2)C3)cc1 [Compound 2q]", "equine serum butyrylcholinesterase (BChE, EC 3.1.1.8) (Equus caballus)", "inactive"),
]

// moving on: another record for BChE inhibition effect (in words)
**Query** Tell me the measured BChE inhibition effect (in words) of O=C(OCC(=O)C12CC3CC(CC(C3)C1)C2)c1ccccn1 [Compound 2r, 2-(Adamantan-1-yl)-2-oxoethyl picolinate] , please.
**Result** low inhibition effects

* * *

Target: Electric eel acetylcholinesterase (AChE, EC 3.1.1.7) (Electrophorus electricus, UniProt O42275)
Construct: purchased Sigma-Aldrich (St. Louis, MO, USA)
Sequence (O42275 24-633): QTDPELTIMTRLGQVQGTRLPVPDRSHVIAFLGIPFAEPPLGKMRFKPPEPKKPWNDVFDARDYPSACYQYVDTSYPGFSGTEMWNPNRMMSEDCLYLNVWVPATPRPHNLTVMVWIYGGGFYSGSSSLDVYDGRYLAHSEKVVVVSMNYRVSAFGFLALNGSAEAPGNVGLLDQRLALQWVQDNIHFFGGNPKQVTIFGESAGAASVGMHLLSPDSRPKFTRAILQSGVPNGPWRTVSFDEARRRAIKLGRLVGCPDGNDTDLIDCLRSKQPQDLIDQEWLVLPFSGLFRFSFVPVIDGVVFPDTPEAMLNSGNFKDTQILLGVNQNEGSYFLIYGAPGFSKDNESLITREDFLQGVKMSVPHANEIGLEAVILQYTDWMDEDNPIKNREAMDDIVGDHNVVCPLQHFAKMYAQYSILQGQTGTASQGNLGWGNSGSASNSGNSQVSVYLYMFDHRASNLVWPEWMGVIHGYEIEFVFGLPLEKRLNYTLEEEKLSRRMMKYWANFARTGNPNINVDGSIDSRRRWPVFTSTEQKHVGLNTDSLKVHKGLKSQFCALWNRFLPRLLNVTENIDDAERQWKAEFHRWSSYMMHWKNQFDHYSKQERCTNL
Test: biochemical
Type: biochemical
Conditions: Ellman's assay, pH 8, 15 min pre-incubation, acetylthiocholine iodide substrate, mean ± SD, triplicate; read-out: AChE IC50
IC50 values for the compounds below.

Here's what some known entries look like.
# compound, test-value
data = [
    ("Nc1cccc(C(=O)OCC(=O)C23CC4CC(CC(C4)C2)C3)c1", "> 1500 µM"),
    ("O=C(OCC(=O)C12CC3CC(CC(C3)C1)C2)c1ccccn1 [Compound 2r, 2-(Adamantan-1-yl)-2-oxoethyl picolinate]", "> 1500 µM"),
]

**Query** Tell me the measured IC50 of Nc1ccc(C(=O)OCC(=O)C23CC4CC(CC(C4)C2)C3)cc1 , please.
**Result** > 1500 µM

**Query** Ok, now COc1ccccc1C(=O)OCC(=O)C12CC3CC(CC(C3)C1)C2
**Result** > 1500 µM

Source of measurements: paper PMC6152672
